- target: human VR1 (Homo sapiens)
- Construct: expressed in transfected cells; host or cells: HEK293
- Sequence (Q8NER1 whole entry): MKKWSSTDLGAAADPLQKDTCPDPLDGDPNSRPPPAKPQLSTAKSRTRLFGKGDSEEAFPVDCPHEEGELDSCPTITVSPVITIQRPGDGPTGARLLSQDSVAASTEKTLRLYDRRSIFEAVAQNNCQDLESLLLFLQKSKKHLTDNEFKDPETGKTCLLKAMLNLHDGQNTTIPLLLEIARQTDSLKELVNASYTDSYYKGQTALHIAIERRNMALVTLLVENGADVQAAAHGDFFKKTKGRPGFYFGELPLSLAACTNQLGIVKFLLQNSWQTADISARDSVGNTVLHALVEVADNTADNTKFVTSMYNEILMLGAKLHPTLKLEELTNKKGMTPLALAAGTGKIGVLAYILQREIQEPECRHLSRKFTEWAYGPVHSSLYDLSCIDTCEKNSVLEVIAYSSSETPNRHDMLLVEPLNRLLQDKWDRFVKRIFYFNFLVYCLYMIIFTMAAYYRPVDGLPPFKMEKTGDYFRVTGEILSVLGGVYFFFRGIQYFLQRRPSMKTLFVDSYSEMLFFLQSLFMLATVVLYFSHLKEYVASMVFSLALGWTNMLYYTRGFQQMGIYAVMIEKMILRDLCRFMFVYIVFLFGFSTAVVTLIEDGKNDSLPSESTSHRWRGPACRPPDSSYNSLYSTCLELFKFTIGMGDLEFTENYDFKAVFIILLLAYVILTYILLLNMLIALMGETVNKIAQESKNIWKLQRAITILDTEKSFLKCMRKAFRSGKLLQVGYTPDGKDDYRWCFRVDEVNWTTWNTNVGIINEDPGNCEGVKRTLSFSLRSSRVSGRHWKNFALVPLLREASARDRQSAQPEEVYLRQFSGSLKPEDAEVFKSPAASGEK
- method: Human VR1 functional assay (FLIPR intracellular Ca2+)
- Type: cell-based
- details: inhibition of capsaicin response, 5 μM; read-out: h % I (5 μM)
List of inhibition at 5 µM values.

compound	uom	inhibition at 5 µM
Cc1cc(NC(=O)CCc2ccc(C(F)(F)F)cc2)cnc1-n1ccnc1 [Cpd 247]	%	97
O=C(CCc1ccc(C(F)(F)F)cc1)Nc1ccc(-c2ccc(CO)cc2)c(C(F)(F)F)c1 [Cpd 250]	%	100
Cc1cc(NC(=O)CCc2ccc(C(C)(C)C)cc2)cnc1-c1cccc(O)c1 [Cpd 161]	%	94
O=C(CCc1ccccc1)Nc1ccc(-c2ccncc2)c(C(F)(F)F)c1 [Cpd 252]	%	100
Cc1cc(NC(=O)CCc2ccc(C(C)(C)C)cc2)cc(C)c1-c1ccc(CO)cc1 [Cpd 88]	%	84
Cc1cc(NC(=O)CCc2ccc(C(C)(C)C)cc2)cnc1-c1cccc([N+](=O)[O-])c1 [Cpd 260]	%	93
CC(C)(C)c1ccc(CCC(=O)Nc2ccc(-n3cnc(Cl)c3Cl)c(C(F)(F)F)c2)cc1 [Cpd 212]	%	100
Cc1cc(NC(=O)CCc2ccc(C(C)(C)C)cc2)cc(C)c1-c1cccc(O)c1 [Cpd 86]	%	97
